Molecular target: Recombinant (1-346) HPK1 (h) (Homo sapiens, UniProt Q92918)
Construct: Recombinant (1-346) HPK1 (h) is incubated with 8 mM MOPS pH 7.0
Sequence (Q92918 1-346): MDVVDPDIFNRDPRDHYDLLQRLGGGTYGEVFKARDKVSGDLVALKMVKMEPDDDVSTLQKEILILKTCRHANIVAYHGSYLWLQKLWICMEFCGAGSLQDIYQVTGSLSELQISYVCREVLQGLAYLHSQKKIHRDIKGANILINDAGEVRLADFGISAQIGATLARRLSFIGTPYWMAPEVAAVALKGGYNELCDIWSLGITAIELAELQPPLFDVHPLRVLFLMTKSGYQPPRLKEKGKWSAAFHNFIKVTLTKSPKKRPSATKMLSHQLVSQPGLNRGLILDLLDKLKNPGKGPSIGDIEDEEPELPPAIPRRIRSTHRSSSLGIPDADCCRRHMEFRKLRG
Experiment: HPK1 human STE kinase enzymatic radiometric assay
Format: biochemical
Conditions: read-out: HPK1 IC50 nM Range
Recorded measurements of IC50, one per entry

Incoming: Need IC50, item C[C@@H]1CCCN1Cc1cc(-c2nc(-c3ccc4c(c3)C(F)(F)CNC4=O)c(N)nc2F)ccc1C1CCOCC1
Outgoing: 0.1 to 10 nM

Incoming: For the molecule CN(C)Cc1cc(-c2nc(-c3cc(F)c4c(=O)[nH]cc(F)c4c3)c(N)nc2F)ccc1C1CCOCC1 , what IC50 is on record?
Outgoing: 0.1 to 10 nM

Incoming: Value lookup for IC50; key = Cc1c[nH]c(=O)c2ccc(-c3nc(-c4ccc(N5CCN(CCC(F)F)CC5)cc4)c(F)nc3N)cc12
Outgoing: > 1000 nM

Incoming: Endpoint output: IC50 of Cc1c[nH]c(=O)c2ccc(-c3nc(-c4ccc(O)c(C(C)N(C)C)c4)c(F)nc3N)cc12 (stereo not shown) . Value?
Outgoing: 0.1 to 10 nM
